- procedure details: chemical genetic growth profiling, strain panel (AID 1159580);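 also: tested at 20 µM; growth read once vehicle control cultures reached saturation at 30 °C; 1 = growth at the plate median or of vehicle wells; lower values mean less growth of the strain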
- test context: S. cerevisiae deletion strains, growth OD, locus YMR078C, strain ctf18, active compounds read low
About 2,000 (36%) of roughly 5,500 compounds were called active. Another 18% or so got no clear call; they are omitted. This is one part of the list.
result type: normalized growth
Quick one: just the number, no unit, thanks!

See these solved cases before continuing.
C[C@H](N)[C@H](O)c1cccc(O)c1 :: 0.985
C=C1C2CCC3(C)C(c4ccoc4)OC(=O)CC13OC1CC(OC(C)=O)C(C)(C)C(CC(=O)OC)C12C (stereo not drawn) :: 0.988
CC(=O)O[C@H]1CC[C@]2(C)C3C(=O)[C@@H](OC(C)=O)[C@@]4(C)C(C[C@@H]5O[C@]6(CCC(C)CO6)[C@@H](C)[C@@H]54)C3CC[C@H]2C1 (stereo partly drawn) :: 0.992
C[C@@H](N)[C@@H](O)c1ccccc1 :: 1.01
C=C1C(C2(C)C=CC(=O)C(C)(C)C2CC(=O)OC)CC[C@@]2(C)[C@H](c3ccoc3)OC(=O)C3OC132 (stereo partly drawn) :: 0.961
COc1cc([C@@H]2c3cc4c(cc3[C@H](OC(C)=O)[C@H]3COC(=O)[C@@H]23)OCO4)cc(OC)c1OC :: 1.05
C=C1C2CC[C@@]3(C)[C@H](c4ccoc4)OC(=O)C[C@]13O[C@H]1CC(=O)C(C)(C)C(CC(=O)OC)[C@@]21C (stereo partly drawn) :: 1.01

Proceeding to the next molecule to report its normalized growth.
Which measured normalized growth value corresponds to CC1CCC2(OC1)OC1CC3C4CCC5C[C@@H](O)CCC5(C)C4=CCC3(C)C1[C@@H]2C (stereo partly drawn) ?
0.98

* * *

- procedure details: chemical genetic growth profiling, strain panel (AID 1159580)
- test context: S. cerevisiae deletion strains, growth OD, locus YGR229C, strain SMI1
Among all 5,500 compounds or so, about 2,000 (36%) were called active. Another 18% or so got no clear call; they are omitted. No stated cut-off is given here; in the data, active means normalized growth mostly below about 0.91 (no sharp cut-off); inconclusive means no clear call, values can overlap the other calls; inactive means mostly above about 0.92. Some of the results follow.
Respond using exactly one of the listed classes: true (active), false (inactive)

Examples with answers:
Cc1cc(O)c(C)c2c1C(=O)Oc1c(C)c(O)c(C(=O)O)c(C)c1O2 :: false
COc1ccc(CNc2ccccc2-c2nc3ccccc3[nH]2)cc1 :: false
Cc1cc(O)c(C=O)c2c1C(=O)Oc1c(COC(=O)/C=C/C(=O)O)c(O)c(C(=O)O)c(C)c1O2 :: true
CCOC(=O)[C@H](CCc1ccccc1)N[C@@H](C)C(=O)N1Cc2ccccc2C[C@H]1C(=O)O :: false

Attention now turns to another entry.
# outcome recorded in this test, key = `Cc1ccc2cc(NC(=O)c3ccco3)ccc2n1`
false

* * *

Catalogue of normalized growth readings, one per entry.
- procedure details: chemical genetic growth profiling, strain panel (AID 1159580)
- test context: S. cerevisiae deletion strains, growth OD, locus YLR113W, strain HOG1, active compounds read low
The whole screen tested about 5,500 compounds, of which about 2,000 (36%) were called active. Roughly 18% stayed inconclusive and do not appear here. This is one part of the list.
Quick one: just the number, no unit, thanks!

See these solved cases before continuing.
NC(=O)c1ncn(C2O[C@H](CO)[C@@H](O)[C@H]2O)c1N (some centres not stated) :: 0.993
COC(=O)c1c(C)cc(OC(=O)c2c(C)cc(O)c(C=O)c2O)c(C)c1O :: 0.995
COc1cc(C)c(C(=O)Oc2cc(C)c(C(=O)O)c(O)c2C)c(OC)c1C :: 0.557

Which measured normalized growth value corresponds to CSc1ccc2c(c1)N(CCC1CCCCN1C)c1ccccc1S2 (configuration not stated) ?
0.996

Which measured normalized growth value corresponds to C[C@@H]1CC2C3CCC4=CC(=O)C=C[C@]4(C)[C@@]3(F)[C@@H](O)C[C@]2(C)[C@H]1C(=O)CO (some centres not stated) ?
0.929

Which measured normalized growth value corresponds to `Cc1onc(-c2ccccc2)c1C(=O)Sc1ccc(C(F)(F)F)cn1` ?
0.184

Which measured normalized growth value corresponds to `O=C(Nc1ccc(Cl)cc1)O/N=C\c1ccn(-c2ccccc2)n1` ?
0.6

Which measured normalized growth value corresponds to `CCOC(=O)[C@H](CCc1ccccc1)N[C@@H](C)C(=O)N1Cc2ccccc2C[C@H]1C(=O)O` ?
0.963

Which measured normalized growth value corresponds to `CNC(=O)Oc1ccc2c(c1)[C@]1(C)CCN(C)[C@@H]1N2C` ?
0.991

Which measured normalized growth value corresponds to `CCCCC[C@H](CC(=O)NO)C(=O)N[C@H](C(=O)N1CCC[C@H]1CO)C(C)C` ?
0.972

Which measured normalized growth value corresponds to `N[C@@H](Cc1cc(I)c(Oc2ccc(O)c(I)c2)c(I)c1)C(=O)O` ?
1.03

* * *

- procedure details: chemical genetic growth profiling, strain panel (AID 1159580)
- test context: S. cerevisiae deletion strains, growth OD, locus YLR262C, strain YPT6 (second series), active compounds read low
Among all 5,500 compounds or so, about 2,000 (36%) were called active. Another 18% or so got no clear call; they are omitted. The list shows a part of the results.
The label T is reserved for normalized growth strictly under 1; F covers values equal to or above it.

Examples with answers:
O=C(O)CCCOc1ccc(Cl)cc1Cl :: T
COc1ccc(C(=O)CC(=O)c2ccc(C(C)(C)C)cc2)cc1 :: T

Attention now turns to another entry.
Lab note: confirm whether the reported normalized growth for this compound is below 1, equality not counting. compound: `C[C@H](N)[C@H](O)c1cccc(O)c1`
F

* * *

- procedure details: chemical genetic growth profiling, strain panel (AID 1159580);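 also: tested at 20 µM; growth read once vehicle control cultures reached saturation at 30 °C; 1 = growth at the plate median or of vehicle wells; lower values mean less growth of the strain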
- test context: S. cerevisiae deletion strains, growth OD, locus YJR066W, strain TOR1, active compounds read low
Screen size: about 5,500 compounds; about 2,000 (36%) were called active. Roughly 18% stayed inconclusive and do not appear here. Some of the results follow.
result type: normalized growth
Quick one: just the number, no unit, thanks!

See these solved cases before continuing.
O=C1CN=C(c2ccccc2Cl)c2cc([N+](=O)[O-])ccc2N1 :: 0.945
NCCOB(c1ccccc1)c1ccccc1 :: 0.00283
O=C1CSC(c2ccc(C(F)(F)F)cc2)N1c1ccc(C(F)(F)F)cc1 (stereo unspecified) :: 0.936
CCCCC[C@H](CC(=O)NO)C(=O)N[C@H](C(=O)N1CCC[C@H]1CO)C(C)C :: 0.934
NC(=O)c1ncn(C2O[C@H](CO)[C@@H](O)[C@H]2O)c1N (stereo partly specified) :: 0.949

Proceeding to the next molecule to report its normalized growth.
Which measured normalized growth value corresponds to Cc1ccc(N2C(=O)CSC2c2ccc(Cl)c(Cl)c2)cc1Cl (stereo unspecified) ?
0.995

* * *

- procedure details: chemical genetic growth profiling, strain panel (AID 1159580);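 also: tested at 20 µM; growth read once vehicle control cultures reached saturation at 30 °C; 1 = growth at the plate median or of vehicle wells; lower values mean less growth of the strain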
- test context: S. cerevisiae deletion strains, growth OD, locus YPL031C, strain PHO85
Hit rate of the full screen: of about 5,500 compounds, about 2,000 (36%) were called active. Another 18% or so got no clear call; they are omitted. Rule as the data show it: active = normalized growth mostly below about 0.91 (no sharp cut-off); inconclusive = no clear call, values can overlap the other calls; inactive = mostly above about 0.92. The list shows a part of the results.
Respond using exactly one of the listed classes: active, inactive

Examples with answers:
O=C1/C(=C/c2ccc(C(F)(F)F)cc2)COc2ccccc21 :: inactive
CNC(=O)n1nc(C)c(Cc2csc3ccc(Cl)cc23)c1C :: inactive
COc1ccc(C(=O)NCc2csc3ccc(Cl)cc23)cc1OC :: inactive
O=C(Nc1cccc2ccccc12)c1ccccc1O :: active
CC(C)(C)C(=O)/C(C#N)=C/c1c(Cl)cccc1Cl :: active
CSC(=NNc1ccccc1)NC(=O)c1c(Cl)cccc1Cl :: inactive

# outcome recorded in this test, key = `COc1cc(CC/C(C)=N/O)ccc1OCc1ccc(Cl)cc1Cl`
inactive

# outcome recorded in this test, key = `NNC(=O)c1csc(Cc2c(Cl)sc3ccc(Cl)cc23)n1`
inactive

# outcome recorded in this test, key = `S=C(Nc1cc(Cl)c(Cl)cc1Cl)Nc1ccccc1Br`
inactive

# outcome recorded in this test, key = `O=C(NNc1ccc(Cl)cc1)c1ccc(F)cc1F`
inactive

# outcome recorded in this test, key = `S=C(NNc1ccccc1)Nc1cc(Cl)ccc1Cl`
inactive

# outcome recorded in this test, key = `Cc1nn(Cc2nnc(SCc3cccc(C(F)(F)F)c3)o2)c(C)c1Br`
inactive

* * *

- procedure details: chemical genetic growth profiling, strain panel (AID 1159580);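 also: tested at 20 µM; growth read once vehicle control cultures reached saturation at 30 °C; 1 = growth at the plate median or of vehicle wells; lower values mean less growth of the strain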
- test context: S. cerevisiae deletion strains, growth OD, locus YDL035C, strain GPR1
Hit rate of the full screen: of about 5,500 compounds, about 2,000 (36%) were called active. Roughly 18% stayed inconclusive and do not appear here. Rule as the data show it: active = normalized growth mostly below about 0.91 (no sharp cut-off); inconclusive = no clear call, values can overlap the other calls; inactive = mostly above about 0.92. This is one part of the list.
Respond using exactly one of the listed classes: active, inactive

Cc1cc(O)c(C=O)c2c1C(=O)Oc1c(C)c(O)c3c(c1O2)C(O)OC3=O (stereo not given) :: inactive
COc1cc(C(=O)O)c2c(c1C)OC(=O)c1c(C)cc(O)c(C=O)c1O2 :: inactive
Cc1cc(O)c(C)c2c1C(=O)Oc1c(C)c(O)c(C(=O)O)c(C)c1O2 :: inactive

# outcome recorded in this test, key = `Cc1cc(O)c(C=O)c2c1C(=O)Oc1c(COC(=O)/C=C/C(=O)O)c(O)c(C(=O)O)c(C)c1O2`
inactive

# outcome recorded in this test, key = CC(CCC(=O)O)[C@H]1CCC2C3CC[C@@H]4C[C@H](O)CC[C@]4(C)C3CC[C@@]21C (stereo not given in full)
active
